Target: Prostaglandin E synthase (Homo sapiens) (UniProt O14684)
Sequence (O14684 whole entry): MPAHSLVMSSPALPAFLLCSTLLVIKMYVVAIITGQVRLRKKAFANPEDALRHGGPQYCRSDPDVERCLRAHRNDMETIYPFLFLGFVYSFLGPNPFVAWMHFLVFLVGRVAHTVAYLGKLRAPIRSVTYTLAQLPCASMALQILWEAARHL
Experiment: Inhibition of mPGES-1 in human HeLa cells using PGH2 as substrate assessed as inhibition of IL-1beta/TNFalpha-stimulated PGE2 production at 5 uM preincubated for 30 mins followed by substrate addition measured after 1 min by LC-MS/MS analysis
Assay type: cell-based
assay readout: inhibition (%)

Solved entries (count: 2):
[[record]]
compound_structure_string = "O=C(O)c1ccc(S(=O)(=O)N(CCCc2ccccc2)Cc2ccccc2)cc1"
assay_readout = "inhibition"
measured_number = 73

[[record]]
compound_structure_string = "O=C(O)c1ccc(S(=O)(=O)N(Cc2ccc(-c3ccccc3)cc2)CC2CCCCC2)cc1"
assay_readout = "inhibition"
measured_number = 76


I: CCCCN(Cc1ccccc1)S(=O)(=O)c1ccc(C(=O)O)cc1
II: O=C(O)c1ccc(S(=O)(=O)N(Cc2ccccc2)Cc2ccc(Oc3ccccc3)cc2)cc1
III: O=C(O)c1ccc(S(=O)(=O)N(Cc2ccc(Cl)cc2)CC2CCCCC2)cc1
## Input // sort entries: inhibition, high to low Put the labels in the order asked and list them.
## Output II, III, I
(II: 90%, III: 48.4%, I: 19.1%)

1: N#Cc1ccc(S(=O)(=O)N(Cc2ccccc2)Cc2ccccc2)cc1
2: COc1ccc(CN(CC2CCCCC2)S(=O)(=O)c2ccc(C(=O)O)cc2)cc1
## Input Of 1 and 2 , which shows the smaller inhibition value? Record your answer as the label of the chosen record.
## Output 1

I: O=C(O)c1ccc(S(=O)(=O)N(Cc2ccccc2)c2ccccc2)cc1
II: COc1ccc(CN(Cc2ccsc2)S(=O)(=O)c2ccc(C(=O)O)cc2)cc1
III: O=C(O)c1ccc(S(=O)(=O)N(Cc2ccccc2)Cc2ccc(Nc3ccccc3)cc2)cc1
IV: N#Cc1ccc(S(=O)(=O)N(Cc2ccccc2)Cc2ccc(Oc3ccccc3)cc2)cc1
V: O=S(=O)(c1cccc(Cl)c1)N(Cc1ccccc1)Cc1ccccc1
## Input List the 5 entries from lowest inhibition to highest inhibition value. Put the labels in the order asked and list them.
## Output IV, V, II, I, III
(IV: 1%, V: 6.2%, II: 11.9%, I: 26.4%, III: 78.5%)

----------
Target: Prostaglandin G/H synthase 2 (Homo sapiens) (UniProt P35354)
Sequence (P35354 whole entry): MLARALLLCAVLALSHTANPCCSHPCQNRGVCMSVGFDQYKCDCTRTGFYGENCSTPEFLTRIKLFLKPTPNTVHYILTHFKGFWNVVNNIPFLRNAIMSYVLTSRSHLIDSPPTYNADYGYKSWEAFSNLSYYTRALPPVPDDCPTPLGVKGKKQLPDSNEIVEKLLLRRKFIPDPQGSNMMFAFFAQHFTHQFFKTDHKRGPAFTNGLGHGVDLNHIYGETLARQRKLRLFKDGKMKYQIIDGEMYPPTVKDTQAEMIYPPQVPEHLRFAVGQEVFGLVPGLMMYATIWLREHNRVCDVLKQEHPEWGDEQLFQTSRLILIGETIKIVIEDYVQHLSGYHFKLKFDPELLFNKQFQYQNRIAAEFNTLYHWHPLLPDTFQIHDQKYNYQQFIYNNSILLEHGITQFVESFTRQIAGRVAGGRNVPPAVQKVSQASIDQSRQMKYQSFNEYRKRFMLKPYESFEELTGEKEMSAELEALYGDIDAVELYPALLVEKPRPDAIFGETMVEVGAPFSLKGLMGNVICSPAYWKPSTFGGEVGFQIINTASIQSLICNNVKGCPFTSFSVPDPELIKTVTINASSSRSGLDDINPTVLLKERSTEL
Assay: Inhibition of LPS-stimulated COX2 in human whole blood assessed as reduction in PGE2 production by measuring remaining activity at 100 uM preincubated for 15 mins followed by LPS addition measured after 24 hrs by LC-MS/MS analysis
assay readout: Activity (%)

[[record]]
compound_structure_string = "O=C(O)c1ccc(S(=O)(=O)N(CCc2ccccc2)Cc2ccccc2)cc1"
measured_number = 83.3

[[record]]
compound_structure_string = "CCCCN(Cc1ccccc1)S(=O)(=O)c1ccc(C(=O)O)cc1"
measured_number = 62.8


I: O=C(O)c1ccc(S(=O)(=O)N(Cc2ccccc2)c2ccc(Oc3ccccc3)cc2)cc1
II: COc1ccc(CN(CC2CCCCC2)S(=O)(=O)c2ccc(C(=O)O)cc2)cc1
## Input Given I and II , report the one with the higher recorded Activity. Record your answer as the label of the chosen record.
## Output I

----------
Target: UniProt O14684
Assay: Inhibition of mPGES-1 in human HeLa cells using PGH2 as substrate assessed as inhibition of IL-1beta/TNFalpha-stimulated PGE2 production at 5 uM preincubated for 30 mins followed by substrate addition measured after 1 min by LC-MS/MS analysis
Format: cell-based
assay readout: inhibition (%)

[[record]]
compound_structure_string = "O=C(O)c1ccc(CN(Cc2ccccc2)Cc2ccccc2)cc1"
measured_number = 17.4

[[record]]
compound_structure_string = "COc1ccc(CN(Cc2cccc(C#N)c2)S(=O)(=O)c2ccc(C(=O)O)cc2)cc1"
measured_number = 6

[[record]]
compound_structure_string = "O=C(O)c1ccc(S(=O)(=O)N(Cc2ccccc2)Cc2ccccc2)cc1"
measured_number = 51.4

[[record]]
compound_structure_string = "O=C(O)c1ccc(S(=O)(=O)N(CCc2ccccc2)Cc2ccccc2)cc1"
measured_number = 57

[[record]]
compound_structure_string = "O=S(=O)(c1ccc(C(F)(F)F)cc1)N(Cc1ccccc1)Cc1ccccc1"
measured_number = 11.9

[[record]]
compound_structure_string = "COc1ccc(CN(Cc2ccccc2)S(=O)(=O)c2ccc(C(=O)O)cc2)cc1"
measured_number = 39.9

[[record]]
compound_structure_string = "O=C(O)c1ccc(S(=O)(=O)N2CCN(c3ccccc3)CC2)cc1"
measured_number = 58.7

[[record]]
compound_structure_string = "O=C(O)c1ccc(S(=O)(=O)N(Cc2ccc(Oc3ccccc3)cc2)CC2CCCCC2)cc1"
measured_number = 79.2


I: O=C(O)c1cccc(S(=O)(=O)N(Cc2ccccc2)Cc2ccccc2)c1
II: COc1ccc(CN(Cc2ccoc2)S(=O)(=O)c2ccc(C(=O)O)cc2)cc1
III: O=C(O)c1ccc(S(=O)(=O)N(Cc2ccccc2)c2ccc(Oc3ccccc3)cc2)cc1
IV: COc1ccc(CN(Cc2nc(C)cs2)S(=O)(=O)c2ccc(C(=O)O)cc2)cc1
## Input List the 4 entries from lowest inhibition to highest inhibition value. Put the labels in the order asked and list them.
## Output IV, II, I, III
(IV: 2.9%, II: 14.2%, I: 35.8%, III: 79.8%)
